- Species on record: Rattus norvegicus
- assay details: Open TG-GATES - Regimen: Daily Repeat
- Format: toxicity, organism-based, Sprague-Dawley
- Design: regimen Daily Repeat, gender Male, age 6 weeks
- reported conditions: in vivo, po, 100 mg/kg, […], tissue Plasma, route gavage, dose level Low, time 28 day
Let's look at some compounds and their measured AST.
outcome measure: AST

1. COc1ccc2[nH]c([S+]([O-])Cc3ncc(C)c(OC)c3C)nc2c1 (stereo not given); 59.2 IU/L
2. CCOc1ccc(NC(=O)CC(C)O)cc1 (stereo not given); 64.6 IU/L
3. COC1=CC(=O)C[C@@H](C)[C@]12Oc1c(Cl)c(OC)cc(OC)c1C2=O; 55.8 IU/L
4. NC(N)=Nc1nc(CSCCC(N)=NS(N)(=O)=O)cs1; 59.6 IU/L
5. CCOC(=O)CCC(=O)O[C@H]1[C@H](O[C@@H]2[C@@H](C)[C@H](O[C@H]3C[C@@](C)(OC)[C@@H](O)[C@H](C)O3)[C@@H](C)C(=O)O[C@H](CC)[C@@](C)(O)[C@H](O)[C@@H](C)C(=O)[C@H](C)C[C@@]2(C)O)O[C@H](C)C[C@@H]1N(C)C [ERYTHROMYCIN ETHYLSUCCINATE]; 59.2 IU/L

###

- Organism: Rattus norvegicus
- assay details: Open TG-GATES - Regimen: Single
- Format: toxicity, organism-based, Sprague-Dawley
- Set-up: regimen Single, gender Male, age 6 weeks
- reported conditions: in vivo, po, 1000 mg/kg, 9 h, tissue Blood, route gavage, dose level High
Quick reference for Hb among some compounds
outcome measure: Hb (g/dL)

1. COc1ccc2[nH]c([S+]([O-])Cc3ncc(C)c(OC)c3C)nc2c1 (centres undefined); 12.8
2. CCOC(=O)CCC(=O)O[C@H]1[C@H](O[C@@H]2[C@@H](C)[C@H](O[C@H]3C[C@@](C)(OC)[C@@H](O)[C@H](C)O3)[C@@H](C)C(=O)O[C@H](CC)[C@@](C)(O)[C@H](O)[C@@H](C)C(=O)[C@H](C)C[C@@]2(C)O)O[C@H](C)C[C@@H]1N(C)C [ERYTHROMYCIN ETHYLSUCCINATE]; 13.5
3. NC(N)=Nc1nc(CSCCC(N)=NS(N)(=O)=O)cs1; 13.1
4. COC1=CC(=O)C[C@@H](C)[C@]12Oc1c(Cl)c(OC)cc(OC)c1C2=O; 12.4

###

- Species: Rattus norvegicus
- assay details: Open TG-GATES - Regimen: Daily Repeat
- Assay type: toxicity, organism-based, Sprague-Dawley
- Design: regimen Daily Repeat, gender Male, age 6 weeks
- reported conditions: in vivo, po, 100 mg/kg, […], tissue Blood, route gavage, dose level Low, time 7 day
The following compounds are shown together with reported Ret values.
outcome measure: Ret (%)

1) COc1ccc2[nH]c([S+]([O-])Cc3ncc(C)c(OC)c3C)nc2c1 (stereo not given) [OMEPRAZOLE]; 4.7
2) COC1=CC(=O)C[C@@H](C)[C@]12Oc1c(Cl)c(OC)cc(OC)c1C2=O [GRISEOFULVIN]; 5.7
3) CCOC(=O)CCC(=O)O[C@H]1[C@H](O[C@@H]2[C@@H](C)[C@H](O[C@H]3C[C@@](C)(OC)[C@@H](O)[C@H](C)O3)[C@@H](C)C(=O)O[C@H](CC)[C@@](C)(O)[C@H](O)[C@@H](C)C(=O)[C@H](C)C[C@@]2(C)O)O[C@H](C)C[C@@H]1N(C)C [ERYTHROMYCIN ETHYLSUCCINATE]; 5.3
4) NC(N)=Nc1nc(CSCCC(N)=NS(N)(=O)=O)cs1 [FAMOTIDINE]; 5.2
5) CCOc1ccc(NC(=O)CC(C)O)cc1 (stereo not given) [BUCETIN]; 5.8
